Reference for the values: ChEMBL document CHEMBL1135533

- System: Neuronal cell line
- assayProtocol: In vitro inhibition of cell growth in human neuronal cell line.
- Type: functional, cell-based
readoutType: log10 IC50 (log10 of the value in µg/mL)
Note: values are log10 of IC50 expressed in µg/mL.

Q: Look up log10 IC50 with Neuronal cell line for this compound: "COC(=O)/C(=C/Cn1c(-c2ccccc2)ncc(NC(=O)OCc2ccccc2)c1=O)COC(=O)c1ccc([N+](=O)[O-])cc1"
A: 0.24

Q: Look up log10 IC50 with Neuronal cell line for this compound: "COC(=O)/C(=C/[C@H](C)NC(=O)Cn1c(-c2ccccc2)ncc(NC(=O)OCc2ccccc2)c1=O)COC(C)=O"
A: 0.04

Q: Tell me reported log10 IC50 for "COC(=O)/C(=C/Cn1c(-c2ccccc2)ncc(NC(=O)OCc2ccccc2)c1=O)CO" , tested with Neuronal cell line.
A: -0.02

Q: Form: Entry = "COC(=O)/C(=C/Cn1c(-c2ccccc2)ncc(NC(=O)OCc2ccccc2)c1=O)COC(C)=O" | System = Neuronal cell line | log10 IC50 = ____
A: -0.04

Q: API: value(readout=log10 IC50, system=Neuronal cell line) for record "COC(=O)/C(=C/Cn1c(-c2ccccc2)ncc(NC(=O)N2CCN(C(C)=O)CC2)c1=O)COC(C)=O"
A: 1.14

Q: Lab request: please report log10 IC50 under test system Neuronal cell line for "COC(=O)/C(=C/Cn1c(-c2ccccc2)ncc(NC(=O)OCc2ccccc2)c1=O)COC(=O)c1ccccc1"
A: 0.41

----------
- System: Plasmodium falciparum
- assayProtocol: Inhibitory activity against chloroquine-resistant Plasmodium falciparum W-2 Indochina III
- Assay type: functional, organism-based
readoutType: IC50 (µg/mL)
Please respond with the number in µg/mL and leave the unit unwritten.

Q: Fill in: IC50 of "COC(=O)/C(=C/Cn1c(-c2ccccc2)ncc(NC(=O)OCc2ccccc2)c1=O)COC(C)=O" is ___
A: 0.017

Q: What does the data say about its IC50? Entry: "COC(=O)/C(=C/Cn1c(-c2ccccc2)ncc(NC(=O)OCc2ccccc2)c1=O)COC(=O)c1ccc([N+](=O)[O-])cc1"
A: 0.024

Q: Fill blank: measured IC50 of the molecule "COC(=O)/C(=C/Cn1c(-c2ccccc2)ncc(NC(=O)N2CCN(C(C)=O)CC2)c1=O)COC(C)=O" is ____.
A: 0.018

Q: Which IC50 reading was recorded for the molecule "COC(=O)/C(=C/[C@H](C)NC(=O)Cn1c(-c2ccccc2)ncc(NC(=O)OCc2ccccc2)c1=O)COC(C)=O" ?
A: 0.01

Q: What value of IC50 has been recorded for this entry: "COC(=O)/C(=C/Cn1c(-c2ccccc2)ncc(NC(=O)OCc2ccccc2)c1=O)COC(=O)c1ccccc1"
A: 0.028

Q: State the recorded IC50 for this entry: "COC(=O)/C(=C/Cn1c(-c2ccccc2)ncc(NC(=O)OCc2ccccc2)c1=O)CO"
A: 0.017
